# credit: patent US20210340524A1

SYSTEM NAME: T1, anti-mCD19 IgG (clone 1D3)
T1 construct: Anti-mouse CD19 IgG; also called 1D3 IgG; biotinylated 1D3 antibody
T1 sequence (VH, as listed by the source, chain 1 of 2): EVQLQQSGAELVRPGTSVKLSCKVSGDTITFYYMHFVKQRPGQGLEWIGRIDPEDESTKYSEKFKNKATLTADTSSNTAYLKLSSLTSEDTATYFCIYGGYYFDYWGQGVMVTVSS
T1 sequence (VL, as listed by the source, chain 2 of 2): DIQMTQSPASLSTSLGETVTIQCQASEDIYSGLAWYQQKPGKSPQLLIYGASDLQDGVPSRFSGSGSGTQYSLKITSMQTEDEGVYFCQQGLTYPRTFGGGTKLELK
MEASUREMENT PROTOCOL: ELISA, titration with anti-mCD19 (1D3) IgG, OD(450nm); value printed beside the square curve

[
  {
    "BINDER": "SKLKGKSGPEFHWFINVPPF (Chemically synthesized 20 amino acid fusion of two mimotopes; also called fusion mimotope) [1D3 Mimotope Multimer H1 + C11 (SKLKGKSGPEFHWFINVPPF)]",
    "Kd / nM": 102
  }
]
